test-name: Dynamic solubility at 37 °C (HPLC; residual solid by XRPD)
Format: physicochemical
condition-info: water, 37 °C, thermodynamic from solid, 24 h
Method: Samples of the crystal form A and the crystal form B of ethoximod were taken and prepared into saturated solutions at 37 °C in Fasted State Simulated Intestinal Fluid (FaSSIF, pH = 8.0), Fed State Simulated Intestinal Fluid (FeSSIF, pH = 5.0), Simulated Gastric Fluid (SGF, pH = 1.0), a hydrochloric acid aqueous solution (pH = 1.0), an acetic acid-sodium acetate buffer system (pH = 4.0), a phosphate buffer system (pH = 6.8) and water. […]
measurement-type: solubility at 24 h

Value of solubility at 24 h reported for the molecule CCc1nc(-c2ccc(-c3ccc(CCC(N)(CO)CO)cc3)cc2)co1.Cl [crystal form A] is 2260 µg/mL
